The values you see were collected from patent US9096596B2.

system.name: rat P2X7 (Rattus norvegicus (Rat))
Sequence (Q64663 whole entry): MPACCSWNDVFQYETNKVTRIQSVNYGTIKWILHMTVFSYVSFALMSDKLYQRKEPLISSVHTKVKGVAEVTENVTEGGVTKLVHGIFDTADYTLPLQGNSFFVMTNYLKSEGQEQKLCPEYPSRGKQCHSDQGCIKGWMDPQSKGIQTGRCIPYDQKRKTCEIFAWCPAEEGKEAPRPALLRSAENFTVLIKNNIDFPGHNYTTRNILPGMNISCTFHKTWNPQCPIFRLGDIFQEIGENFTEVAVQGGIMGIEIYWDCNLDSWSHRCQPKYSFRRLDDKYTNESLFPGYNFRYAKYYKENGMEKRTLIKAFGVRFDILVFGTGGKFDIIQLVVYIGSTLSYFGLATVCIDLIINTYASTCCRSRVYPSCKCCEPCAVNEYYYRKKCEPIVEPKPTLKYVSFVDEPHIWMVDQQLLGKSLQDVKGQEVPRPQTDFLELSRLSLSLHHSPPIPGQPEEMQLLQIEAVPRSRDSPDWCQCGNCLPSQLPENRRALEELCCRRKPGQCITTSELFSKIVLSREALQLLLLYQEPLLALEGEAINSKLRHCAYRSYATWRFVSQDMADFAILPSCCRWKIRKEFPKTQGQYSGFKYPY
assay.info: Ca2+ flux (FLIPR) in 1321N1 cells expressing recombinant rat P2X7 channel
Assay type: cell-based
assay.conditions: 250 μM BzATP, Calcium-4 dye
property.measured: IC50 (µM)

{"molecule": "Cc1nc2c(c(-c3cscn3)n1)CCN(C(=O)c1cccc(C(F)(F)F)c1Cl)C2 [Example 44]", "system.name": "rat P2X7 (Rattus norvegicus (Rat))", "property.measured": "IC50", "numeric.result": 0.156}
{"molecule": "Cc1nc2c(c(-c3ccn[nH]3)n1)C[C@H](C)N(C(=O)c1ccc(F)cc1F)C2 (single isomer, unassigned) [Example 95]", "system.name": "rat P2X7 (Rattus norvegicus (Rat))", "property.measured": "IC50", "numeric.result": 0.101}
{"molecule": "Nc1nc2c(c(-c3ccn[nH]3)n1)CCN(C(=O)c1cccc(C(F)(F)F)c1Cl)C2 [Example 55]", "system.name": "rat P2X7 (Rattus norvegicus (Rat))", "property.measured": "IC50", "numeric.result": 0.117}
